Parameter LD50 at 168 h: see the listing below.
Assay: Acute toxicity in mice
Conditions: mouse, in vivo, ip; deaths for seven days
Protocol: A group of 10 male mice of ddY strain weighing about 25 grams was administered orally or intraperitoneally with a suspension of the test compound in a 5% arabic gum solution in the amount of 10 ml per kg. of body weight. The LD50 values were calculated by means of the Wilcoxon-Litchfield method on the number of mice died for seven days after administration.

[[record]]
compound = "COc1ccccc1N=Nc1ncc[nH]1 [Compound E, 2-[(2-methoxyphenyl)azo]-1H-imidazole]"
reported_value = "630 mg/kg"

[[record]]
compound = "COc1ccc(I)cc1N=Nc1ncc[nH]1 [Compound D]"
reported_value = "> 1000 mg/kg"

[[record]]
compound = "COc1ccc(Cl)cc1N=Nc1ncc[nH]1 [Compound A]"
reported_value = "795 mg/kg"


Q. If you can, please state the reported LD50 at 168 h value of COc1ccc(Br)cc1N=Nc1ncc[nH]1 [Compound C] .
A. > 1000 mg/kg

Q. Please do the same for COc1ccc(F)cc1N=Nc1ncc[nH]1 [Compound B] as well.
A. 322 mg/kg

====

Test: Acute toxicity in mice
Settings: mouse, in vivo, po; orally; deaths for seven days
Parameter LD50 at 168 h: see the listing below.

[[record]]
compound = "COc1ccc(F)cc1N=Nc1ncc[nH]1"
reported_value = "462 mg/kg"

[[record]]
compound = "COc1ccc(Br)cc1N=Nc1ncc[nH]1"
reported_value = "> 1500 mg/kg"

[[record]]
compound = "COc1ccc(Cl)cc1N=Nc1ncc[nH]1"
reported_value = "1280 mg/kg"

[[record]]
compound = "COc1ccccc1N=Nc1ncc[nH]1 [Compound E, 2-[(2-methoxyphenyl)azo]-1H-imidazole]"
reported_value = "1010 mg/kg"


Proceed to the following item.
Q. If you can, please state the reported LD50 at 168 h value of COc1ccc(I)cc1N=Nc1ncc[nH]1 .
A. > 1500 mg/kg

====

Assay: Solubility
Format: physicochemical
Details: water
observed_property: Solubility in water

Some solved entries appear below for comparison.
[[record]]
molecule = "COc1ccc(F)cc1N=Nc1ncc[nH]1"
observed_property = "Solubility in water"
reported_value = "less soluble"

[[record]]
molecule = "COc1ccc(I)cc1N=Nc1ncc[nH]1"
observed_property = "Solubility in water"
reported_value = "sparingly soluble"

[[record]]
molecule = "COc1ccc(Cl)cc1N=Nc1ncc[nH]1"
observed_property = "Solubility in water"
reported_value = "less soluble"

[[record]]
molecule = "COc1ccc(Br)cc1N=Nc1ncc[nH]1"
observed_property = "Solubility in water"
reported_value = "sparingly soluble"


Q. If you can, please state the reported Solubility in water value of COc1ccccc1N=Nc1ncc[nH]1 [Compound E, 2-[(2-methoxyphenyl)azo]-1H-imidazole] .
A. sparingly soluble

====

Experiment: Solubility
Assay type: physicochemical
Details: hexane
observed_property: Solubility in hexane

[[record]]
compound = "COc1ccc(F)cc1N=Nc1ncc[nH]1 [Compound B]"
observed_property = "Solubility in hexane"
reported_value = "less soluble"

[[record]]
compound = "COc1ccc(Br)cc1N=Nc1ncc[nH]1 [Compound C]"
observed_property = "Solubility in hexane"
reported_value = "sparingly soluble"

[[record]]
compound = "COc1ccccc1N=Nc1ncc[nH]1 [Compound E, 2-[(2-methoxyphenyl)azo]-1H-imidazole]"
observed_property = "Solubility in hexane"
reported_value = "sparingly soluble"

[[record]]
compound = "COc1ccc(Cl)cc1N=Nc1ncc[nH]1 [Compound A]"
observed_property = "Solubility in hexane"
reported_value = "less soluble"


Q. If you can, please state the reported Solubility in hexane value of COc1ccc(I)cc1N=Nc1ncc[nH]1 [Compound D] .
A. sparingly soluble
